The reported measurements were obtained from patent US8575201B2.

target: recombinant human FLAP protein (Homo sapiens (Human)); assay: FLAP binding assay (Scintillation Proximity Assay, displacement of [125I]L-691,831); settings: read-out: FLAP SPA IC50
pIC50: −log10 of the molar value.
Quick reference: pIC50 of the listed items.
observed-property: pIC50

molecule="CN(C)C(=O)[C@@H]1CCCN1c1ccc(-c2nc(C3(c4ccc(-c5cnc(N)nc5)nc4)CCC3)no2)cn1 [Example 34]" measured_target="recombinant human FLAP protein (Homo sapiens (Human))" obs_value=7.40
molecule="Nc1ncc(-c2ccc(C3(c4noc(-c5cnco5)n4)CCC3)cn2)cn1 [Example 98]" measured_target="recombinant human FLAP protein (Homo sapiens (Human))" obs_value=6.96
molecule="Nc1ncc(-c2ccc(C3(c4noc(-c5ccc(N6CCOCC6)nc5)n4)CCC3)cn2)cn1 [Example 89]" measured_target="recombinant human FLAP protein (Homo sapiens (Human))" obs_value=8.57
molecule="CNc1cnc(-c2ccc(C3(c4noc(-c5cnn(C6COC6)c5)n4)CCC3)cn2)cn1 [Example 176]" measured_target="recombinant human FLAP protein (Homo sapiens (Human))" obs_value=7.64
molecule="Cc1n[nH]c(C)c1-c1nc(C2(c3ccc(-c4cnc(N)nc4)nc3)CCC2)no1 [Example 103]" measured_target="recombinant human FLAP protein (Homo sapiens (Human))" obs_value=7.85
molecule="CN(C)c1nc(C2(c3ccc(-c4cnc(N)nc4)nc3)CCC2)no1 [Example 15]" measured_target="recombinant human FLAP protein (Homo sapiens (Human))" obs_value=6.55
molecule="CN(C(=O)Cn1cc(-c2nc(C3(c4ccc(-c5cnc(N)nc5)nc4)CCC3)no2)cn1)C1CC1 [Example 160]" measured_target="recombinant human FLAP protein (Homo sapiens (Human))" obs_value=7.02
molecule="CS(=O)(=O)Cn1cc(-c2nc(C3(c4ccc(-c5cnc(N)nc5)nc4)CCC3)no2)cn1 [Example 71]" measured_target="recombinant human FLAP protein (Homo sapiens (Human))" obs_value=7.24
molecule="CC(C)Nc1ccc(-c2nc(C3(c4ccc(-c5cnc(N)nc5)nc4)CCC3)no2)cn1 [Example 114]" measured_target="recombinant human FLAP protein (Homo sapiens (Human))" obs_value=8.82
molecule="COc1ccncc1-c1nc(C2(c3ccc(-c4cnc(N)nc4)nc3)CCC2)no1 [Example 86]" measured_target="recombinant human FLAP protein (Homo sapiens (Human))" obs_value=7.74
molecule="CN(C)c1ccc(-c2nc(C3(c4ccc(-c5cnc(N)nc5)nc4)CCC3)no2)cn1 [Example 110]" measured_target="recombinant human FLAP protein (Homo sapiens (Human))" obs_value=8.62
molecule="Nc1ncc(-c2ccc(C3(c4noc(-c5ccc(Cl)nc5)n4)CCC3)cn2)cn1 [Example 99]" measured_target="recombinant human FLAP protein (Homo sapiens (Human))" obs_value=8.12
molecule="Cc1cnc(-c2nc(C3(c4ccc(-c5cnc(N)nc5)nc4)CCC3)no2)cn1 [Example 130]" measured_target="recombinant human FLAP protein (Homo sapiens (Human))" obs_value=7.59
molecule="Nc1ncc(-c2ccc(C3(c4noc(-c5cnn(C(F)F)c5)n4)CCC3)cn2)cn1 [Example 66]" measured_target="recombinant human FLAP protein (Homo sapiens (Human))" obs_value=8.13
molecule="Nc1ncc(-c2ccc(C3(c4noc(-c5c[nH]cn5)n4)CCC3)cn2)cn1 [Example 75]" measured_target="recombinant human FLAP protein (Homo sapiens (Human))" obs_value=7.72
molecule="CC(C)n1cc(-c2nc(C3(c4ccc(-c5cnc(N)nc5)nc4)CCC3)no2)cn1 [Example 64]" measured_target="recombinant human FLAP protein (Homo sapiens (Human))" obs_value=8.14
molecule="Cc1cccc(-c2nc(C3(c4ccc(-c5cnc(N)nc5)nc4)CCC3)no2)c1 [Example 5]" measured_target="recombinant human FLAP protein (Homo sapiens (Human))" obs_value=8.06

====

system: synthesis of LTB4 in human whole blood; assay: Human whole blood LTB4 production inhibition assay; type: cell-based; conditions: calcimycin stimulated, read-out: hWB LTB4 IC50
# IC50 per entry
observed-property: IC50 (nM)

compound="COCCn1cc(-c2nc(C3(c4ccc(-c5cnc(N)cn5)nc4)CCC3)no2)cn1 [Example 171]" measured_target="synthesis of LTB4 in human whole blood" units_symbol=nM obs_value=76
compound="Nc1ncc(-c2ccc(C3(c4noc(-c5cnccc5O)n4)CCC3)cn2)cn1 [Example 107]" measured_target="synthesis of LTB4 in human whole blood" units_symbol=nM obs_value=4000
compound="COC(=O)[C@@H]1CCCN1c1ccc(-c2nc(C3(c4ccc(-c5cnc(N)nc5)nc4)CCC3)no2)cn1 [Example 36]" measured_target="synthesis of LTB4 in human whole blood" units_symbol=nM obs_value=1400
compound="Nc1ncc(-c2ccc(C3(c4noc(-c5ccc(NCC(=O)O)nc5)n4)CCC3)cn2)cn1 [Example 16]" measured_target="synthesis of LTB4 in human whole blood" units_symbol=nM obs_value=2200
compound="N#CCn1cc(-c2nc(C3(c4ccc(-c5cnc(N)nc5)nc4)CCC3)no2)cn1 [Example 141]" measured_target="synthesis of LTB4 in human whole blood" units_symbol=nM obs_value=85
compound="N#CCn1cc(-c2nc(C3(c4ccc(-c5cnc(N)cn5)nc4)CCC3)no2)cn1 [Example 170]" measured_target="synthesis of LTB4 in human whole blood" units_symbol=nM obs_value=51
compound="Nc1ncc(-c2ccc(C3(c4noc(-c5ccc(N6CCS(=O)(=O)CC6)nc5)n4)CCC3)cn2)cn1 [Example 49]" measured_target="synthesis of LTB4 in human whole blood" units_symbol=nM obs_value=180
compound="Cc1nc(N)cnc1-c1ccc(C2(c3noc(-c4cnn(C5COC5)c4)n3)CCC2)cn1 [Example 169]" measured_target="synthesis of LTB4 in human whole blood" units_symbol=nM obs_value=21
compound="CNc1cnc(-c2ccc(C3(c4noc(-c5cnn(CC(C)(C)O)c5)n4)CCC3)cn2)cn1 [Example 177]" measured_target="synthesis of LTB4 in human whole blood" units_symbol=nM obs_value=160
compound="Cn1cc(-c2nc(C3(c4ccc(-c5cnc(N)nc5)nc4)CCC3)no2)c(C(F)(F)F)n1 [Example 20]" measured_target="synthesis of LTB4 in human whole blood" units_symbol=nM obs_value=530
compound="Nc1ncc(-c2ccc(C3(c4noc(-c5cnccn5)n4)CCC3)cn2)cn1 [Example 129]" measured_target="synthesis of LTB4 in human whole blood" units_symbol=nM obs_value=630
compound="CN(C)c1nc(C2(c3ccc(-c4cnc(N)nc4)nc3)CCC2)no1 [Example 15]" measured_target="synthesis of LTB4 in human whole blood" units_symbol=nM obs_value=2600
compound="COC1CCN(C(=O)Cn2cc(-c3nc(C4(c5ccc(-c6cnc(N)nc6)nc5)CCC4)no3)cn2)C1 (stereo not shown) [Example 161]" measured_target="synthesis of LTB4 in human whole blood" units_symbol=nM obs_value=1100
compound="Nc1ncc(-c2ccc(C3(c4noc(-c5cnn(CC(F)F)c5)n4)CCC3)cn2)cn1 [Example 68]" measured_target="synthesis of LTB4 in human whole blood" units_symbol=nM obs_value=160
compound="CN(CC1CCCO1)C(=O)Cn1cc(-c2nc(C3(c4ccc(-c5cnc(N)nc5)nc4)CCC3)no2)cn1 (stereo not shown) [Example 159]" measured_target="synthesis of LTB4 in human whole blood" units_symbol=nM obs_value=510
compound="Nc1ncc(-c2ccc(C3(c4noc(-c5cn[nH]c5)n4)CCC3)nc2)cn1 [Example 132]" measured_target="synthesis of LTB4 in human whole blood" units_symbol=nM obs_value=370

====

target: recombinant human FLAP protein (Homo sapiens (Human), UniProt P20292); experiment: FLAP binding assay (Scintillation Proximity Assay, displacement of [125I]L-691,831); settings: read-out: FLAP SPA IC50
Sequence (P20292 whole entry): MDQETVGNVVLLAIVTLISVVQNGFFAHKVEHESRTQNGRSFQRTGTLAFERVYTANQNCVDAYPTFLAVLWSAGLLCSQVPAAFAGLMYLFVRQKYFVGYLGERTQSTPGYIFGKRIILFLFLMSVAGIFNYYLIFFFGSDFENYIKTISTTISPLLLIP
We'd kindly ask you to apply these IC50 classes: L = under 10 nM, M = from 10 nM up to 30 nM, H = 30 nM and over

sample_smiles=COc1cc(-c2nc(C3(c4ccc(-c5cnc(N)nc5)nc4)CCC3)no2)ccn1 assigned_category=L
sample_smiles=N#CCn1cc(-c2nc(C3(c4ccc(-c5cnc(N)nc5)nc4)CCC3)no2)cn1 assigned_category=M
sample_smiles=Cn1nccc1-c1nc(C2(c3ccc(-c4cnc(N)nc4)nc3)CCC2)no1 assigned_category=M
sample_smiles=C[C@@H](O)CNc1ccc(-c2nc(C3(c4ccc(-c5cnc(N)nc5)nc4)CCC3)no2)cn1 assigned_category=L
sample_smiles=Nc1ncc(-c2ccc(C3(c4noc(-c5cscn5)n4)CCC3)cn2)cn1 assigned_category=M
sample_smiles=COCCN(C)c1ccc(-c2nc(C3(c4ccc(-c5cnc(N)nc5)nc4)CCC3)no2)cn1 assigned_category=L
sample_smiles=COCCn1cc(-c2nc(C3(c4ccc(-c5cnc(N)cn5)nc4)CCC3)no2)cn1 assigned_category=H
sample_smiles=Nc1ncc(-c2ccc(C3(c4noc(-c5cccnc5N)n4)CCC3)cn2)cn1 assigned_category=M
sample_smiles=Cn1cc(-c2nc(C3(c4ccc(-c5cnc(N)cn5)nc4)CCC3)no2)cn1 assigned_category=H
sample_smiles=Nc1ncc(-c2ccc(C3(c4noc(-c5ccc(NCC(=O)O)nc5)n4)CCC3)cn2)cn1 assigned_category=M
sample_smiles=CC(C)(C#N)Cn1cc(-c2nc(C3(c4ccc(-c5cnc(N)nc5)nc4)CCC3)no2)cn1 assigned_category=M
sample_smiles=Nc1ncc(-c2ccc(C3(c4noc(-c5cnccc5N)n4)CCC3)cn2)cn1 assigned_category=H
sample_smiles=CC(C)(O)Cn1cc(-c2nc(C3(c4ccc(-c5cnc(N)cn5)nc4)CCC3)no2)cn1 assigned_category=M
sample_smiles=Nc1ncc(-c2ccc(C3(c4noc(-c5ccncc5)n4)CCC3)cn2)cn1 assigned_category=H
sample_smiles=Nc1ncc(-c2ccc(C3(c4noc(-c5ccc[nH]c5=O)n4)CCC3)cn2)cn1 assigned_category=M
sample_smiles=Cc1ncccc1-c1nc(C2(c3ccc(-c4cnc(N)nc4)nc3)CCC2)no1 assigned_category=M
sample_smiles=Nc1ncc(-c2ccc(C3(c4noc(-c5ccc(N6CCN(CCC(=O)O)CC6)nc5)n4)CCC3)cn2)cn1 assigned_category=L
